# System: T1, human Y4 receptor (P50391, NPY4R_HUMAN, Uniprot) (human, UniProt P50391 1-375)
# T1 construct: whole, on cells; Assayed as membrane preparations of the expressing cells
# T1 sequence (P50391 whole entry, one chain of several): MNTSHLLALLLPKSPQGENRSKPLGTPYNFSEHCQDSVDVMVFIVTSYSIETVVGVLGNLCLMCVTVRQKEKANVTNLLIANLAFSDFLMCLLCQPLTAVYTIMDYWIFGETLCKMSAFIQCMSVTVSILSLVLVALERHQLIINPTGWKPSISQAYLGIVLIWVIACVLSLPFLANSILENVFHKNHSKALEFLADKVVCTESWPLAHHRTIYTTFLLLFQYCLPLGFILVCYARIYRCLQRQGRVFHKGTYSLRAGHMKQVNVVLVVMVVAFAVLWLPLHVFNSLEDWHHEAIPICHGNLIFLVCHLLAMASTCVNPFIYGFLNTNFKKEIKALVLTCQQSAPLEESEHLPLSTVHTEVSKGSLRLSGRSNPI
# Assay Procedure: SPA vs [125I]-PP
Numbered stars: 1 amine (or outer) side, 2 acyl side, 3 side chain; on linkers, the order of the positions; unused ones are H or OH. Side chains are listed from the residue outwards. * marks the point of attachment. C18 diacid = O=C(O)CCCCCCCCCCCCCCCCC(=O)*; γGlu = O=C(O)[C@H](CCC(=O)[*:2])N[*:1]; Isovaleryl = CC(C)CC(=O)*; AEEA = NCCOCCOCC(=O)O
This listing pairs binders with measured Ki.
A number alone suffices; assume µM.

Some entries whose results are on file:
- Isovaleryl-RPEAPGK([AEEA-AEEA-γGlu-C18 diacid])DASPEELQRYYAELRHYYNWLTRQRY-NH2 (also called Compound 52; 52): 5.69
- Isovaleryl-RPEK([γGlu-C18 diacid])PTEDASPEELQRYYQSLRHYYNWLTRQRY-NH2 (also called Compound 43): 6.4

Attention now shifts to the item below.
Provide only the value of recorded Ki for Isovaleryl-RPEAPPK([γGlu-AEEA-γGlu-C18 diacid])DASPEELQRYYESLRHYYNWLTRQRY-NH2 (also called Compound 54; 54)
5.91

Provenance of the data: patent US20170313750A1
